// provenance: paper PMC7536116

Target: TNF-alpha (human, UniProt P01375 77-233)
Sequence (P01375 77-233): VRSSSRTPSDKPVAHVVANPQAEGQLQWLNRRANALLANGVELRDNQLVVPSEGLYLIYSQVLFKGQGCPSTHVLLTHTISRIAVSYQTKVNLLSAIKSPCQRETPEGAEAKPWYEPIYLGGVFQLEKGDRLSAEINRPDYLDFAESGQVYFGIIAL
Experiment: GFET
Observable: pKd
Worth noting: pKd values are minus log10 of concentrations stated in mol/L.

What value of pKd has been reported for the following binder? TGGTGGATGGCGCAGTCGGCGACAA (ssDNA, 5'-NH2 (amine, coupled to PASE on graphene)) [VR11 aptamer]
7.56
